Molecular target: SARS2 coronavirus 3CL protease (Severe acute respiratory syndrome coronavirus 2 (2019-nCoV) (SARS-CoV-2), UniProt P0DTD1)
Assay: SARS2 Coronavirus 3CL Protease Assay (FRET)
Type: biochemical
Details: SARS2 3CLPro FRET assay; 5 nM enzyme, 30 min pre-incubation with compound, 15 uM peptide substrate, 4 h room temperature
pIC50: −log10 of the molar value.
In this section, each of the compounds is paired with its reported pIC50.
measurement type: pIC50

{"columns": ["compound", "measurement type", "reported"],
 "data": [
  ["CNC(=O)C(=O)[C@H](CCC(C)(F)F)NC(=O)[C@@H]1CC(F)(F)[C@@H](C)CN1C(=O)[C@@H](NC(=O)OC)C(C)(C)C [Example 91]", "pIC50", 7.72],
  ["COCC(NC(=O)OC)C(=O)N1CC2(CCCCC2)C[C@H]1C(=O)N[C@@H](CCC(C)(F)F)C(=O)C(=O)NC1CC1 (single isomer, unassigned) [Example 11]", "pIC50", 7.40],
  ["COC(=O)N[C@@H](Cc1ccccc1)C(=O)N1CC[C@@H](C(F)(F)F)C[C@H]1C(=O)N[C@@H](CCC(C)(F)F)C(=O)C(=O)NC1CC1 [Example 68]", "pIC50", 7.55],
  ["COC(=O)N[C@H](C(=O)N1CC2(CCCCC2)C[C@H]1C(=O)N[C@@H](CCC(C)(F)F)C(=O)C(=O)NCC(C)C)C(C)(C)C [Example 9]", "pIC50", 7.68],
  ["COC(=O)N[C@H](C(=O)N1C[C@H]2[C@@H]([C@H]1C(=O)N[C@@H](CCC(C)(F)F)C(=O)C(=O)NC1CC1)C(C)(C)C2(C)C)C(C)(C)C [Example 36]", "pIC50", 8.09],
  ["COC(=O)N[C@H](C(=O)N1CC2CCC2C1C(=O)N[C@@H](CCC(C)(F)F)C(=O)C(=O)NC1CC1)C(C)(C)C (single isomer, unassigned) [Example 43]", "pIC50", 7.66]
]}
